System: SC27B
Experiment: qHTS profiling for inhibitors of Plasmodium falciparum proliferation (AID 504749); also: nearly all actives have a fitted effect of over 60% in size
Conditions: P. falciparum in erythrocytes, SYBR Green DNA, 72 h; series mostly up to 28.7 µM
Method: NIH National Institute of Allergy and Infectious Diseases [NIAID] NIH Chemical Genomics Center [NCGC] […] Because mature erythrocytes lack DNA, only Plasmodium-derived DNA is detected. NCGC Assay Protocol Summary: The SYBR Green viability assay was adapted from a method described previously (Plouffe et al., 2008). […] The following morning, fluorescence intensity at 485(14) nm excitation and 535(25) nm emission wavelengths was measured on an EnVision (Perkin Elmer) plate reader. […]
Results filed as inconclusive are left out. Activity calls are given as the source filed them. Calls follow the shape of the dose curve; as a rule, active = well fitted inhibition curve with a large enough effect; inconclusive = small, poorly fitted or top-dose-only effect; inactive = flat fitted curve, though single readings scatter.
Reply using exactly one outcome from True for active, False for inactive

What outcome does the record of this test show for NC(C(=O)O)c1ccc(O)cc1 (stereo not given) ?
False

What outcome does the record of this test show for C=CC1CN2CCC1CC2[C@@H](O)c1ccnc2ccc(OC)cc12 (stereo not given in full) ?
True

What outcome does the record of this test show for Cc1onc(-c2c(F)cccc2Cl)c1C(=O)NC1C(=O)N2C1SC(C)(C)C2C(=O)O (stereo not given) ?
False

What outcome does the record of this test show for "C=C(NCc1ccccc1)c1ccccc1O" ?
False

What outcome does the record of this test show for CC(=O)N[C@H]1[C@H](O[C@@H]2c3ccc(c(Cl)c3)Oc3cc4cc(c3O[C@@H]3O[C@H](CO)[C@@H](O)[C@H](O)C3C)Oc3ccc(cc3Cl)C[C@H]3NC(=O)[C@@H](N)c5ccc(O)c(c5)Oc5cc(O)cc(c5)[C@H](NC3=O)C(=O)N[C@H]4C(=O)N[C@H]3C(=O)N[C@@H]2C(=O)N[C@@H](C(=O)O)c2cc(O)cc(O[C@H]4O[C@H](CO)[C@@H](O)C(O)[C@@H]4O)c2-c2cc3ccc2O)O[C@H](CO)[C@@H](O)[C@@H]1O (stereo not given in full) ?
False

====

test system: FAB9; assay: qHTS profiling for inhibitors of Plasmodium falciparum proliferation (AID 504749); also: nearly all actives have a fitted effect of over 60% in size; also: potency is read from the fitted curve at half-maximal effect; conditions: P. falciparum in erythrocytes, SYBR Green DNA, 72 h; series mostly up to 28.7 µM
Inconclusive results are not listed. Activity calls are given as the source filed them. The call rests on the fitted dose curve; in most records, active means well fitted inhibition curve with a large enough effect; inconclusive means small, poorly fitted or top-dose-only effect; inactive means flat fitted curve, though single readings scatter.
Reported property: Potency

Examples with answers:
Given C[C@@H]1C(SC2Cn3cnc[n+]3C2)=C(C(=O)[O-])N2C(=O)[C@H]([C@@H](C)O)[C@@H]12 (stereo not given in full) , respond with its Potency.
inactive

Given Nc1nc(/C(=C/CC(=O)O)C(=O)NC2C(=O)N3C(C(=O)O)=CCSC23)cs1 (stereo not given) , respond with its Potency.
inactive

Given "C=C1N[C@]2(C(=O)COC(C)=O)[C@@H](C[C@H]3[C@@H]4CCC5=CC(=O)C=C[C@]5(C)[C@H]4[C@@H](O)C[C@@]32C)O1" , respond with its Potency.
inactive

Given C=CCN1CC(C(=O)N(CCCN(C)C)C(=O)NCC)CC2c3cccc4[nH]cc(c34)CC21 (stereo not given) , respond with its Potency.
inactive

Given CCC(C(=O)O)C1OC(C(C)C(O)C(C)C(=O)C(CC)C2OC3(C=CC(O)C4(CCC(C)(C5CCC(O)(CC)C(C)O5)O4)O3)C(C)CC2C)C(C)CC1C (stereo not given) , respond with its Potency.
282 nM (active)

***
Given "NC(=O)OC[C@@H]1[C@H](NC(=O)/C(=N/OCC(=O)O)c2csc(N)n2)C(=O)N1S(=O)(=O)O" , respond with its Potency.
100 nM (active)

Given "COc1cc([C@H]2c3cc4c(cc3[C@@H](O[C@H]3O[C@H]5CO[C@@H](C)O[C@H]5[C@@H](O)[C@@H]3O)[C@@H]3COC(=O)[C@H]23)OCO4)cc(OC)c1O" , respond with its Potency.
inactive

====

system: PC15; experiment: qHTS profiling for inhibitors of Plasmodium falciparum proliferation (AID 504749); also: nearly all actives have a fitted effect of over 60% in size; settings: P. falciparum in erythrocytes, SYBR Green DNA, 72 h; series mostly up to 28.7 µM
Inconclusive results are not listed. Active and inactive are the calls of the source. Calls follow the shape of the dose curve; as a rule, active = well fitted inhibition curve with a large enough effect; inconclusive = small, poorly fitted or top-dose-only effect; inactive = flat fitted curve, though single readings scatter.
Reported property: outcome

Given CCC1OC(=O)C[C@H](O)C(C)[C@@H](O[C@@H]2OC(C)C(O)C(N(C)C)C2O)C(CCN2CC(C)CC(C)C2)CC(C)C(=O)/C=C/C(C)=C\[C@@H]1COC1OC(C)C(O)C(OC)C1OC (stereo partly drawn) , respond with its outcome.
inactive

Given "CCN(CC)C(=O)Nc1ccc(OC[C@H](O)CNC(C)(C)C)c(C(C)=O)c1" , respond with its outcome.
inactive

Given OCCOC[C@H]1O[C@H](OCCO)[C@H](OCCO)[C@@H](OCCO)[C@@H]1OCCO (tested in a mixture with another compound) , respond with its outcome.
inactive

====

system: AA1029; assay: qHTS profiling for inhibitors of Plasmodium falciparum proliferation (AID 504749); also: nearly all actives have a fitted effect of over 60% in size; conditions: P. falciparum in erythrocytes, SYBR Green DNA, 72 h; series mostly up to 28.7 µM
Inconclusive results are not listed. Calls of active or inactive are those of the source. Calls follow the shape of the dose curve; as a rule, active = well fitted inhibition curve with a large enough effect; inconclusive = small, poorly fitted or top-dose-only effect; inactive = flat fitted curve, though single readings scatter.
Reply using exactly one outcome from 1.0 = active, 0.0 = inactive

Some solved entries appear below for comparison.
What outcome does the record of this test show for "O=C1CC[C@H](C(=O)N[C@@H]2C[C@H]2c2ccccc2)N1" ?
0.0

What outcome does the record of this test show for C=CC1CN2CCC1CC2[C@@H](O)c1ccnc2ccc(OC)cc12 (some centres not stated) ?
1.0

What outcome does the record of this test show for CC1OC(OC2CCC3(C)C(CCC4C3CC(O)C3(C)C(C5=CC(=O)OC5)CCC43O)C2)CC(O)C1OC1CC(O)C(OC2CC(O)C(OC3OC(CO)C(O)C(O)C3O)C(C)O2)C(C)O1 (configuration not stated) ?
0.0

What outcome does the record of this test show for "C=C1CC[C@H](O)C/C1=C/C=C1\CCC[C@]2(C)[C@@H]([C@H](C)CCCC(C)(C)O)CC[C@@H]12" ?
1.0

***
What outcome does the record of this test show for NC(C(=O)O)c1ccc(O)cc1 (configuration not stated) ?
0.0

What outcome does the record of this test show for "O=C(O)Cc1sc(-c2ccc(Cl)cc2)nc1-c1ccccc1" ?
0.0

What outcome does the record of this test show for CC[C@@H](C)C(N)C(=O)O (some centres not stated) ?
0.0

====

Assay: NFAT Signaling Pathway (AID 444);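 also: carbachol stimulus at about its EC50 of 1 µM final; % is scaled to controls: 0 for no effect and ±100 for the full control effect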
Conditions: Jurkat NFAT-bla M1, carbachol, beta-lactamase ratio, 5 h; at 17.2 µM (top of the series) unless noted
Experimental: NCGC Assay Overview: The nuclear factor of activated T cells (NFAT) family of transcription factors has been found primarily in most immune system cells and some other non-immune cells. NFAT plays the immunomodulatory role, primarily in T-cell activation and differentiation. […] NCGC Assay Protocol Summary: The cells were prepared in RPMI 1640 medium containing 0.1% dialyzed FBS and 25 mM HEPES at 1.6 x 10^6cell/ml. […] The %Activity was determined from the ratio of 460nm/530nm. […]
Inconclusive results are not listed.
Would you mind sorting the entries by activity change, negative = inhibition according to these classes? lower range = under -10%, middle range = from -10% up to 10%, upper range = 10% and over

Hi, small favor: classify "O=C(Nc1ccccc1)c1cc(N2CCOCC2)nc2ccccc12" by its activity change, negative = inhibition when you get a moment.
upper range

Hi, small favor: classify "CCOC(=O)c1[nH]c2cc3c(cc2c1NC(=O)CN1CCc2ccccc2C1)OCO3" by its activity change, negative = inhibition when you get a moment.
lower range

Hi, small favor: classify "c1cc2c(cc1C1=Nn3c(nnc3C3CCCCC3)SC1)OCO2" by its activity change, negative = inhibition when you get a moment.
upper range

Moving on to the next compound.
Hi, small favor: classify "O=C(c1coc(=O)c(Br)c1)N1CCCc2ccccc21" by its activity change, negative = inhibition when you get a moment.
middle range

====

activity, negative = inhibition values for the molecules below.
assay: Stat Signaling Pathway (AID 446); settings: ME-180 (cervical carcinoma) SIE beta-lactamase reporter, IL-6 stimulated, 5 h; at 17.2 µM (top of the series) unless noted;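 also: ME-180 cervical cancer cells given 40 pM IL-6 alongside compound; SIE-controlled beta-lactamase reporter measured as 460/530 nm FRET emission ratio; % is scaled to controls: 0 for no effect and ±100 for the full control effect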
Inconclusive results are not listed. The source made the active and inactive calls. The call rests on the fitted dose curve; in most records, active means well fitted curve in either direction with a large enough effect (not every such curve was filed as active); inconclusive means small, poorly fitted or top-dose-only effect, or another doubt; inactive means flat fitted curve, though single readings scatter.

Examples with answers:
Given CN1c2ccccc2-c2nc3ccccc3n2C1c1ccco1 (stereo not drawn) , respond with its activity, negative = inhibition.
-0.11% (inactive)

Given "Nc1c(Br)cc2oc(-c3ccccc3)nc2c1Br" , respond with its activity, negative = inhibition.
14.6% (inactive)

Given "COc1ccc(CCn2c(=N)c(C#N)cc3c(=O)n4ccccc4nc32)cc1" , respond with its activity, negative = inhibition.
3.03% (inactive)

Given "Cn1c(=O)c2c(nc(NCc3ccco3)n2Cc2ccccc2Cl)n(C)c1=O" , respond with its activity, negative = inhibition.
-14.8% (inactive)

Given "C/C(NC(=O)c1ccccc1F)=C1\C(=O)C[C@@H]2[C@H]1C2(C)C" , respond with its activity, negative = inhibition.
-6.06% (inactive)

Given "COC(=O)CNc1nc(-c2cccnc2)nc2ccccc12" , respond with its activity, negative = inhibition.
-8.59% (inactive)

Given "O=C(NCc1ccco1)c1ccc(=O)oc1" , respond with its activity, negative = inhibition.
-6.97% (inactive)

Note: attention shifts to another entry.
Given "N#CCSc1nc2sc3c(c2c(=O)n1C1CCCCC1)CCCC3" , respond with its activity, negative = inhibition.
6.22% (inactive)
